test system: RPMI-8226 (Plasma Cell Myeloma); experiment: Bliss excess, mean over the matrix (fraction); higher = more synergy;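 note: after 72 h of two-drug dosing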
RECORDED ENDPOINT: Bliss excess
Reply with just the number.

The measured Bliss excess associated with CC1(C)CCC(CN2CCN(c3ccc(C(=O)NS(=O)(=O)c4ccc(NCC5CCOCC5)c([N+](=O)[O-])c4)c(Oc4cnc5[nH]ccc5c4)c3)CC2)=C(c2ccc(Cl)cc2)C1 [Venetoclax] + Cc1cc2ncnn2cc1Nc1ncc2c(n1)n(C1CCOCC1)c(=O)n2C [AZD7648] (first compound max 1 µM, 7x7, partner max 10 µM) reads 0.0285

The measured Bliss excess associated with Cc1cc2ncnn2cc1Nc1ncc2c(n1)n(C1CCOCC1)c(=O)n2C [AZD7648] + O=C(c1cc(Cc2n[nH]c(=O)c3ccccc23)ccc1F)N1CCN(C(=O)C2CC2)CC1 [Olaparib] (first compound max 10 µM, 7x7, partner max 10 µM) reads -0.038

The measured Bliss excess associated with CCN(CCO)CCCOc1ccc2c(Nc3cc(CC(=O)Nc4cccc(F)c4)[nH]n3)ncnc2c1 [AZD2811] + C[C@@H]1COCCN1C2=NC(=NC(=C2)C3(CC3)[S@](=N)(=O)C)C4=C5C=CNC5=NC=C4 [AZD6738] (first compound max 1 µM, 7x7, partner max 10 µM) reads -0.0178

The measured Bliss excess associated with COc1nnc2ccc(N3CCC(c4ccc(OCCN5CCN(C)C(=O)[C@H]5C)cc4)CC3)nn12 [AZD5153] + C[C@@H]1COCCN1C2=NC(=NC(=C2)C3(CC3)[S@](=N)(=O)C)C4=C5C=CNC5=NC=C4 [AZD6738] (first compound max 1 µM, 7x7, partner max 10 µM) reads -0.0505

---

tested on: H9 (T-Cell Non-Hodgkin's Lymphoma); assay: Bliss excess, mean over the matrix (fraction); higher = more synergy
RECORDED ENDPOINT: Bliss excess
Reply with just the number.

| COMPOUND | RECORDED ENDPOINT | VALUE REPORTED |
| --- | --- | --- |
| COc1cccc(OCCCN)c1-c1cc(Nc2cnc(C#N)cn2)n[nH]1 [Prexasertib] + CCc1c2c(nc3ccc(O)cc13)-c1cc3c(c(=O)n1C2)COC(=O)[C@]3(O)CC [SN-38] (first compound max 1 µM, 7x7, partner max 0.3 µM) | Bliss excess | -0.0004 |
| Cc1c2c(nn1C)CSCc1cc(n(C)n1)CSc1cc(c3ccccc3c1)OCCCc1c(C(=O)O)n(C)c3c-2c(Cl)ccc13 [AZD5991] + CN(C)CCCOc1ccc(-c2ccc3ncc4c(c3c2)n(C2CCOCC2)c(=O)n4C)cn1 [AZD0156] (first compound max 1 µM, 7x7, partner max 1 µM) | Bliss excess | 0.0314 |
| CN(C)CCCOc1ccc(-c2ccc3ncc4c(c3c2)n(C2CCOCC2)c(=O)n4C)cn1 [AZD0156] + C=CCn1c(=O)c2cnc(Nc3ccc(N4CCN(C)CC4)cc3)nc2n1-c1cccc(C(C)(C)O)n1 [AZD1775] (first compound max 1 µM, partner max 1 µM) | Bliss excess | -0.0167 |
| NC1(C(=O)N[C@@H](CCO)c2ccc(Cl)cc2)CCN(c2ncnc3[nH]ccc23)CC1 [Capivasertib] + CC(C)n1c(=O)n(C)c2cnc3cc(F)c(-c4ccc(OCCCN5CCCCC5)nc4)cc3c21 [AZD1390] (first compound max 10 µM, 7x7, partner max 0.3 µM) | Bliss excess | -0.0341 |
| NC1(C(=O)N[C@@H](CCO)c2ccc(Cl)cc2)CCN(c2ncnc3[nH]ccc23)CC1 [Capivasertib] + CCN(CCO)CCCOc1ccc2c(Nc3cc(CC(=O)Nc4cccc(F)c4)[nH]n3)ncnc2c1 [AZD2811] (first compound max 10 µM, 7x7, partner max 1 µM) | Bliss excess | -0.0361 |
| Cc1cc2ncnn2cc1Nc1ncc2c(n1)n(C1CCOCC1)c(=O)n2C [AZD7648] + O=C(c1cc(Cc2n[nH]c(=O)c3ccccc23)ccc1F)N1CCN(C(=O)C2CC2)CC1 [Olaparib] (first compound max 10 µM, 7x7, partner max 10 µM) | Bliss excess | -0.0049 |

Switching to the query record.
The measured Bliss excess associated with CCN(CCO)CCCOc1ccc2c(Nc3cc(CC(=O)Nc4cccc(F)c4)[nH]n3)ncnc2c1 [AZD2811] + O=C(c1cc(Cc2n[nH]c(=O)c3ccccc23)ccc1F)N1CCN(C(=O)C2CC2)CC1 [Olaparib] (first compound max 1 µM, 7x7, partner max 10 µM) reads -0.0965

src = the supplement of paper PMC11061612
